# credit: patent US11993574B2

- MEASUREMENT_TARGET: Human RAR-related Orphan Receptor Gamma (RORγ) (Homo sapiens, UniProt P51449)
- ASSAY: RORγ assay (GAL4-RORγ hybrid luciferase reporter, Indigo Biosciences)
- ASSAY_CONDITIONS: inverse-agonist activity, GAL4-RORγ reporter cells, 23 hours
pIC50: −log10 of the molar value.
READOUT_LABEL: pIC50

// known answers, use as guide
COMPOUND: C[C@H]1C(=O)C(C#N)=C[C@@]2(C)c3nc(-c4ccnc(C5CC5)c4)n(-c4cccc(F)c4)c3CC[C@H]12
MEASUREMENT_TARGET: Human RAR-related Orphan Receptor Gamma (RORγ) (Homo sapiens, UniProt P51449)
READOUT_LABEL: pIC50
EXPERIMENTAL_RESULT: 6.76

COMPOUND: Cc1nc2c(n1-c1cccc(F)c1)CC[C@@H]1[C@@H](C)C(=O)C(C#N)=C[C@@]21C
MEASUREMENT_TARGET: Human RAR-related Orphan Receptor Gamma (RORγ) (Homo sapiens, UniProt P51449)
READOUT_LABEL: pIC50
EXPERIMENTAL_RESULT: 6.65

COMPOUND: C[C@H]1C(=O)C(C#N)=C[C@@]2(C)c3c(c(-c4ccccc4F)nn3-c3ccc(N4CCOCC4)cc3)CC[C@H]12
MEASUREMENT_TARGET: Human RAR-related Orphan Receptor Gamma (RORγ) (Homo sapiens, UniProt P51449)
READOUT_LABEL: pIC50
EXPERIMENTAL_RESULT: 7.30

COMPOUND: Cc1noc(C)c1-c1ccc(-n2nc(-c3ccccc3)c3c2[C@]2(C)C=C(C#N)C(=O)[C@H](C)[C@H]2CC3)cc1
MEASUREMENT_TARGET: Human RAR-related Orphan Receptor Gamma (RORγ) (Homo sapiens, UniProt P51449)
READOUT_LABEL: pIC50
EXPERIMENTAL_RESULT: 7.34

COMPOUND: Cc1cc(-c2ccc(-n3nc(-c4cccnc4)c4c3[C@]3(C)C=C(C#N)C(=O)[C@H](C)[C@H]3CC4)cc2)cnn1
MEASUREMENT_TARGET: Human RAR-related Orphan Receptor Gamma (RORγ) (Homo sapiens, UniProt P51449)
READOUT_LABEL: pIC50
EXPERIMENTAL_RESULT: 7.05

(I) Cc1ccc(-n2nc(-c3ccccc3)c3c2[C@]2(C)C=C(C#N)C(=O)[C@H](C)[C@H]2CC3)cn1
(II) C[C@H]1C(=O)C(C#N)=C[C@@]2(C)c3nc(-c4cccc(-c5ccccc5)c4)n(-c4cccnc4)c3CC[C@H]12
QUERY: pIC50 comparison. Which is larger, I or II ? Mark your answer with the label of the selected entry.
RESULT: I
(I: 6.91, II: 6.70)

====

- MEASUREMENT_TARGET: Human RAR-related Orphan Receptor Gamma (RORγ) (Homo sapiens)
- Sequence (P51449 269-508 limits assumed): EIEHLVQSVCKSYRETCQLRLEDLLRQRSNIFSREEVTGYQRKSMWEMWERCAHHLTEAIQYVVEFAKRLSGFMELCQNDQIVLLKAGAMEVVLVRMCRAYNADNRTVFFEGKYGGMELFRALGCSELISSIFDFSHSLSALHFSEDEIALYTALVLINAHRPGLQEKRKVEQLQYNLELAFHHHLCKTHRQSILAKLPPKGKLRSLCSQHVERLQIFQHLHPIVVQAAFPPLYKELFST
- ASSAY: RORγ assay (GAL4-RORγ hybrid luciferase reporter, Indigo Biosciences)
- Type: cell-based
- ASSAY_CONDITIONS: inverse-agonist activity, GAL4-RORγ reporter cells, 23 hours
READOUT_LABEL: IC50 (nM)

SAMPLE_SMILES: Cc1noc(-c2ccc(-n3nc(-c4ccccc4F)c4c3[C@]3(C)C=C(C#N)C(=O)[C@H](C)[C@H]3CC4)cc2)n1
MEASUREMENT_TARGET: Human RAR-related Orphan Receptor Gamma (RORγ) (Homo sapiens)
IC50 / nM: 62
//
SAMPLE_SMILES: Cc1noc(-c2nn(-c3ccc(-c4cccnc4)cc3)c3c2CC[C@@H]2[C@@H](C)C(=O)C(C#N)=C[C@@]32C)n1
MEASUREMENT_TARGET: Human RAR-related Orphan Receptor Gamma (RORγ) (Homo sapiens)
IC50 / nM: 89
//
SAMPLE_SMILES: C[C@H]1C(=O)C(C#N)=C[C@@]2(C)c3c(c(-c4ccccc4)nn3-c3cccc(Br)c3)CC[C@H]12
MEASUREMENT_TARGET: Human RAR-related Orphan Receptor Gamma (RORγ) (Homo sapiens)
IC50 / nM: 89
//
SAMPLE_SMILES: C[C@H]1C(=O)C(C#N)=C[C@@]2(C)c3nn(-c4ccc(OC(F)(F)F)cc4)c(-c4ccccc4)c3CC[C@H]12
MEASUREMENT_TARGET: Human RAR-related Orphan Receptor Gamma (RORγ) (Homo sapiens)
IC50 / nM: 115
//
SAMPLE_SMILES: C[C@H]1C(=O)C(C#N)=C[C@@]2(C)c3c(c(-c4ccccc4F)nn3-c3nc4ccc(Cl)cc4s3)CC[C@H]12
MEASUREMENT_TARGET: Human RAR-related Orphan Receptor Gamma (RORγ) (Homo sapiens)
IC50 / nM: 251
//
SAMPLE_SMILES: C[C@H]1C(=O)C(C#N)=C[C@@]2(C)c3nn(-c4ccc(-c5ccccc5)cc4)c(CC4CCC4)c3CC[C@H]12
MEASUREMENT_TARGET: Human RAR-related Orphan Receptor Gamma (RORγ) (Homo sapiens)
IC50 / nM: 158
//
SAMPLE_SMILES: CC(C)c1ccc(-c2nc3c(n2CCOCc2ccccc2)CC[C@@H]2[C@@H](C)C(=O)C(C#N)=C[C@@]32C)cc1
MEASUREMENT_TARGET: Human RAR-related Orphan Receptor Gamma (RORγ) (Homo sapiens)
IC50 / nM: 471
//
SAMPLE_SMILES: C[C@H]1C(=O)C(C#N)=C[C@@]2(C)c3c(c(-c4ccccc4)nn3-c3ccccc3)CC[C@H]12
MEASUREMENT_TARGET: Human RAR-related Orphan Receptor Gamma (RORγ) (Homo sapiens)
IC50 / nM: 73
//
SAMPLE_SMILES: C[C@H]1C(=O)C(C#N)=C[C@@]2(C)c3c(c(-c4ccncn4)nn3-c3ccc(C4CC4)cn3)CC[C@H]12
MEASUREMENT_TARGET: Human RAR-related Orphan Receptor Gamma (RORγ) (Homo sapiens)
IC50 / nM: 284
//
SAMPLE_SMILES: C[C@H]1C(=O)C(C#N)=C[C@@]2(C)c3nn(-c4ccc(-c5ccccc5)cc4)c(-c4ccncn4)c3CC[C@H]12
MEASUREMENT_TARGET: Human RAR-related Orphan Receptor Gamma (RORγ) (Homo sapiens)
IC50 / nM: 92

(A) Cc1ccc(-n2nc3c(c2-c2ccccc2)CC[C@@H]2[C@@H](C)C(=O)C(C#N)=C[C@@]32C)cc1
(B) C[C@H]1C(=O)C(C#N)=C[C@@]2(C)c3c(c(-c4ccc(CO)cc4)nn3-c3ccc(-c4ccccc4)cc3)CC[C@H]12
QUERY: // select label with min value of measured IC50 from [ A , B ] Mark your answer with the label of the selected entry.
RESULT: B
(B: 40 nM, A: 122 nM)

(P) C[C@H]1C(=O)C(C#N)=C[C@@]2(C)c3c(c(-c4ccncn4)nn3-c3ccc(-c4ccccc4)cn3)CC[C@H]12
(Q) C[C@H]1C(=O)C(C#N)=C[C@@]2(C)c3c(c(-c4ccccc4)nn3-c3ccccc3F)CC[C@H]12
QUERY: // select label with min value of measured IC50 from [ P , Q ] Mark your answer with the label of the selected entry.
RESULT: Q
(Q: 63 nM, P: 113 nM)

====

- MEASUREMENT_TARGET: Human RAR-related Orphan Receptor Gamma (RORγ) (Homo sapiens, UniProt P51449)
- ASSAY: RORγ assay (GAL4-RORγ hybrid luciferase reporter, Indigo Biosciences)
- ASSAY_CONDITIONS: inverse-agonist activity, GAL4-RORγ reporter cells, 23 hours
- Description: B. RORγ Assay and Cell Viability The RORγ assay system was purchased from Indigo Biosciences. […] The GAL4-RORγ hybrid is constitutively active; therefore, the principle application of this reporter assay system is to screen test compounds to quantify inverse-agonist activities against human RORγ. […] After this incubation, luciferin was added to the wells and luciferase activity was determined by measuring the luminescence signal using a BMG Pherastar microplate reader. […]
READOUT_LABEL: IC50 (µM)

// known answers, use as guide
SAMPLE_SMILES: C[C@H]1C(=O)C(C#N)=C[C@@]2(C)c3c(c(-c4ccncn4)nn3-c3ccc(C(F)(F)F)cn3)CC[C@H]12
IC50 / µM: 0.201
//
SAMPLE_SMILES: C[C@H]1C(=O)C(C#N)=C[C@@]2(C)c3nc(Cc4ccccc4)n(-c4cccc(F)c4)c3CC[C@H]12
IC50 / µM: 0.113
//
SAMPLE_SMILES: C[C@H]1C(=O)C(C#N)=C[C@@]2(C)c3c(c(-c4ccc(F)cc4)nn3-c3ccc(-c4cccnn4)cc3)CC[C@H]12
IC50 / µM: 0.064
//
SAMPLE_SMILES: C[C@H]1C(=O)C(C#N)=C[C@@]2(C)c3c(c(-c4ccccc4)nn3-c3ccc(OC(F)(F)F)cc3)CC[C@H]12
IC50 / µM: 0.085
//
SAMPLE_SMILES: C[C@H]1C(=O)C(C#N)=C[C@@]2(C)c3nc(-c4ccc(N(C)C)cc4)n(-c4cccc(F)c4)c3CC[C@H]12
IC50 / µM: 0.11

(I) C[C@H]1C(=O)C(C#N)=C[C@@]2(C)c3c(c(-c4ccccc4)nn3-c3ccc(Cl)cc3)CC[C@H]12
(II) C[C@H]1C(=O)C(C#N)=C[C@@]2(C)c3c(c(-c4ccccn4)nn3-c3ccc(-c4ccccc4)cc3)CC[C@H]12
QUERY: IC50 comparison. Which is larger, I or II ? Mark your answer with the label of the selected entry.
RESULT: I
(I: 0.129 µM, II: 0.067 µM)
